# Test system: SW-620 colon
# Experimental Protocol: NCI-60 one-dose screen, 48 h
# Condition Parameters: 10 µM unless noted
The panel holds about 83,000 compounds, 20% with a hit somewhere; the sample as a whole holds those more often. Activity calls are given as the source filed them. The calls were made as follows: active = growth percent below 10; inactive = the rest.
Thanks in advance; please answer with one of these: active, inactive

Compound | Experimental Target | Label Class
NC(=O)c1cc(-c2ccc3ncnc(N4CCc5cc(F)c(Cl)cc54)c3c2)cnc1N | SW-620 colon | inactive
CN(C)CCCNc1c2ccc(Cl)cc2nc2c1oc1ccccc12 | SW-620 colon | active
N#Cc1ccc(/C=N/NC(=O)c2[nH]c3ccc(Br)cc3c2-c2ccccc2)s1 | SW-620 colon | inactive
Cc1sc2c(c1C)c(=O)nc1c(-c3nc(-c4ccc(F)cc4)no3)n[nH]n12 | SW-620 colon | inactive
Clc1ccc2c(OCCCN3CCOCC3)c3oc4ccccc4c3nc2c1 | SW-620 colon | inactive
Cc1ccc(C(=O)Nc2cccc(C(F)(F)F)c2)cc1Nc1nc(-c2cnccn2)nc2c1cnn2C | SW-620 colon | inactive
CCN1CCN(S(=O)(=O)c2oc(-c3ccc(Cl)cc3)nc2C#N)CC1 | SW-620 colon | active
Cc1ccccc1NC(=O)/C=C/c1ccc(OCCOc2ccc3c(C)cc(=O)oc3c2)cc1 | SW-620 colon | inactive

Data request: Recorded test call requested for COc1cc(OC)c(C2C(Cl)C(=O)N2Nc2ncnc3ccccc23)cc1OC (centres undefined)
Data returned: inactive

Data request: Recorded test call requested for `C=CCn1c(SCC(=O)c2ccc(Br)cc2)nnc1-c1c[nH]c2ccccc12`
Data returned: inactive

Data request: Recorded test call requested for `COc1ccc(/C=C2\SC(=Nc3cc(C)[nH]n3)NC2=O)cc1`
Data returned: inactive

Data request: Recorded test call requested for `N[C@@H](Cc1cn(-c2c3ccccc3nc3ccccc23)nn1)C(=O)O`
Data returned: inactive

Data request: Recorded test call requested for O=C1Nc2ccccc2Oc2ccc(S(=O)(=O)CC3CO3)cc21 (centres undefined)
Data returned: inactive

Data request: Recorded test call requested for `O=C1c2c(c3c4cc(Br)ccc4[nH]c3c3ccc4ccccc4c23)C(=O)N1CCO`
Data returned: inactive

Data request: Recorded test call requested for COc1cc2nc(-c3ccc(C(F)(F)F)cc3)cc(OCCCNCC3CCCO3)c2cc1OC (centres undefined)
Data returned: inactive

Data request: Recorded test call requested for `Cc1cc(C(=O)Nc2sc3c(c2C(N)=O)CCC(=O)C3)ccc1OCCN1CCCCC1`
Data returned: inactive

Data request: Recorded test call requested for `CC(C)(C)OC(=O)N1C(=O)c2c(c3c4ccccc4[nH]c3c3ccc4ccccc4c23)C1=O`
Data returned: inactive

Data request: Recorded test call requested for `NS(=O)(=O)c1ccc(Nc2nc(Nc3ccccc3)nc(-n3nc(-c4ccccc4)cc3-c3ccccc3)n2)cc1`
Data returned: inactive

Data request: Recorded test call requested for `c1ccc2c(NCCCn3ccnc3)c3oc4ccccc4c3nc2c1`
Data returned: active

Data request: Recorded test call requested for `N#Cc1c(-c2ccc(Cl)cc2)nc(SCc2ccccc2)nc1N1CCNCC1`
Data returned: active

Data request: Recorded test call requested for `Cc1cc2nc3c4cc(Cl)ccc4n(CC(=S)NCCN(C)C)c3nc2cc1C`
Data returned: active

Data request: Recorded test call requested for `COc1cccc(NC2=CC(=O)C(C)=C(C)C2=O)c1`
Data returned: inactive

Data request: Recorded test call requested for `O=C(Nc1nc2ccc(O)cc2s1)c1cccc(C(F)(F)F)c1`
Data returned: inactive

Data request: Recorded test call requested for `COc1ccc(-n2c(SCC(=O)Nc3ccc(-c4nc5ccccc5[nH]4)cc3)nc3ccccc3c2=O)cc1`
Data returned: active

###

Entries annotated with measured growth
# Tested on: RPMI-8226 leukemia
# Experimental Protocol: NCI-60 one-dose screen, 48 h (100 = growth as untreated, 0 = no growth, -100 = all killed)
# Condition Parameters: 10 µM unless noted
This is part of a sample that, as a whole, favours compounds with a hit. Of some 83,000 tested, about 20% had one in any assay.
# unit: % | format: bare number

Data request: Using known records, supply growth for `CC1=C(C)C(=O)C(Nc2ccccc2)=C(Cl)C1=O`
Data returned: 53.6

Data request: Using known records, supply growth for `OC1CCN(CCCOc2c3ccc(Cl)cc3nc3c2oc2ccc(Cl)cc23)CC1`
Data returned: -8.79

Data request: Using known records, supply growth for `COc1ccc(COc2ccc(/C=C3/C(=O)Nc4cc(Cl)ccc43)cc2)cc1`
Data returned: 89.9

Data request: Using known records, supply growth for `N#Cc1ccc(C(=O)CSc2nc(Nc3ccc(S(N)(=O)=O)cc3)c3ccccc3n2)cc1`
Data returned: 101

###

Entries annotated with measured growth
# Tested on: SR leukemia
# Experimental Protocol: NCI-60 one-dose screen, 48 h (100 = growth as untreated, 0 = no growth, -100 = all killed)
# Condition Parameters: 10 µM unless noted
The panel holds about 83,000 compounds, 20% with a hit somewhere; the sample as a whole holds those more often.
# unit: % | format: bare number

Compound | Experimental Target | Numeric Value
CN(C)CCCOc1c2ccccc2nc2c1oc1ccc(Cl)cc12 | SR leukemia | -26.7
Clc1ccc2c(NCCCn3ccnc3)c3oc4ccc(Cl)cc4c3nc2c1 | SR leukemia | -11.2
CC1=C(C)C(=O)C(Nc2ccccc2)=C(Cl)C1=O | SR leukemia | 62.9
CN(C)c1ccc(/C=c2\sc3nc4ccccc4n3c2=O)cc1 | SR leukemia | 99.7
CC(=O)Nc1cc(F)cc(-c2ccc3[nH]cc(-c4ccccc4)c3n2)c1 | SR leukemia | -1.91
O=C(N/N=C/c1ccco1)c1[nH]c2ccc(Br)cc2c1-c1ccccc1 | SR leukemia | 11.2
COc1ccc(COc2ccc(/C=C3/C(=O)Nc4cc(Cl)ccc43)cc2)cc1 | SR leukemia | 109
CSCCC(C(=O)O)N1C(=O)/C(=C/c2ccc(O)c(O)c2)SC1=S (stereo unspecified) | SR leukemia | 103

Data request: For SR leukemia, give growth of the listed compound: `CC(=O)c1ccc(Nc2nc(SC(C)C)nc(-c3ccccc3)c2C#N)cc1`
Data returned: 91.5

Data request: For SR leukemia, give growth of the listed compound: CC(O)C(NC(=O)C1CCCN1C(=O)CNC(=O)C1CC(=O)NCC(=O)NC(Cc2c[nH]c3ccccc23)C(=O)NC(Cc2ccc(O)cc2)C(=O)NCC(=O)NC(CO)C(=O)NC(CCC(N)=O)C(=O)NC(Cc2c[nH]c3ccccc23)C(=O)N1)C(=O)NCC(=O)NC(CCC(N)=O)C(=O)NC(CCCNC(=N)N)C(=O)NC(CC(=O)O)C(=O)O (stereo unspecified)
Data returned: 94.5

Data request: For SR leukemia, give growth of the listed compound: COc1cc(-c2ccc3ncnc(NC(C)c4ccccc4)c3c2)cnc1OC (stereo unspecified)
Data returned: 43.7

###

# Test system: HOP-92 NSCLC
# Experimental Protocol: NCI-60 one-dose screen, 48 h (100 = growth as untreated, 0 = no growth, -100 = all killed)
# Condition Parameters: 10 µM unless noted
Compounds without any hit were thinned out: in the full panel of roughly 83,000, 20% have a hit.
Property Label: growth (%)
# unit: % | format: bare number

Reference set, count: 4
Compound | growth (%)
COc1ccccc1/C=C/C=N/NC1=NC2C(S1)N(C)C(=O)N2C (stereo not given) | 9.2
O=C(N/N=C/c1ccc([N+](=O)[O-])s1)c1[nH]c2ccc(Br)cc2c1-c1ccccc1 | -7.35
CO/N=C1\CCc2c(sc(NC(=O)c3cccc(C(F)(F)F)c3)c2C(N)=O)C1 | -12.7
N[C@@H](Cc1cn(-c2c3ccccc3nc3ccccc23)nn1)C(=O)O | 108

Data request: Using known records, supply growth for `c1ccc(CNc2ncnc3ccc(-c4cnc5[nH]ncc5c4)cc23)cc1`
Data returned: 57.9

Data request: Using known records, supply growth for `CN(C)c1ccc(/C=C2\Cc3c(F)ccc(Br)c3C2=O)cc1`
Data returned: 91.5

Data request: Using known records, supply growth for `CC(C)(C)Nc1nc2c(OCCc3ccccc3)cccn2c1-c1cccc(F)c1`
Data returned: -27

###

Entries annotated with measured growth
# Tested on: SK-MEL-5 melanoma
# Experimental Protocol: NCI-60 one-dose screen, 48 h (100 = growth as untreated, 0 = no growth, -100 = all killed)
# Condition Parameters: 10 µM unless noted
About 83,000 compounds went through this panel and 20% of them were active in at least one assay; those are over-represented in the sample as a whole.
# unit: % | format: bare number

Sample Smiles | Experimental Target | Property Label | Units Of Measure | Numeric Value
N#Cc1nc(-c2ccccc2)oc1S(N)(=O)=O | SK-MEL-5 melanoma | growth | % | 76.2
CS(=O)(=O)c1ccc(-c2nc3ccccn3c2/C=N/Nc2nc(-c3ccc(Cl)cc3)cs2)cc1 | SK-MEL-5 melanoma | growth | % | 91.7
N/C(=N\c1nc2c(Br)cccc2s1)C(Br)Br | SK-MEL-5 melanoma | growth | % | 68.3
Cc1c(Nc2nnc(SCC(=O)Nc3sc4c(c3C#N)CCCC4)s2)c(=O)n(-c2ccccc2)n1C | SK-MEL-5 melanoma | growth | % | 102

Data request: Using known records, supply growth for `O=c1[nH]c2ccccc2cc1CSc1ccccc1Nc1nccc(-c2ccc(C(F)(F)F)cc2)n1`
Data returned: 96.2
